- Tested on: KM20L2 colon
- EXPERIMENT_SUMMARY: NCI tumour cell line growth inhibition, 48 h
METRIC: TGI

query: Which measured TGI belongs to O=C(CSc1nnc(Cc2ccccc2)o1)Nc1ccc(Cl)cc1Cl , tested on KM20L2 colon?
result: > 100 µM

query: Kindly state the measured TGI obtained for NC1CCCCC1N.O=NN1CCCCCC1(P(=O)([O-])[O-])P(=O)([O-])[O-].[Na+].[Pt+2] with KM20L2 colon.
result: > 100 µM

query: Lab note: need TGI for C[Si](C)(C)/N=C1\N2C(=NC1(C(F)(F)F)C(F)(F)F)Sc1ccccc12 on KM20L2 colon, anyone have it?
result: > 50 µM

query: What reported TGI corresponds to CC(NS(=O)(=O)c1ccc(Cl)cc1)C(=O)O (stereo not given) on KM20L2 colon?
result: > 100 µM

query: Request - read-out TGI | tested on KM20L2 colon | molecule CCCCSC(=CC(=O)c1cccc(C(=O)C=C(SCCCC)SCCCC)n1)SCCCC
result: > 100 µM

query: Lab note: need TGI for COc1ccc2c3c([nH]c2c1CC=C(C)C)C(=O)C=C(C)C3=O on KM20L2 colon, anyone have it?
result: > 25 µM

query: Any idea what TGI came out for CC1=C(/C=C/C(C)=C/C=C/C(C)=C/C=C/C=C(C)/C=C/C=C(C)/C=C/C=C(C)/C=C/C=C(\C)C(=O)O)C(C)(C)CCC1 on KM20L2 colon?
result: > 100 µM

query: Item: COc1cc(C(C)c2cc3c(cc2OCCN)OCO3)cc(OC)c1OC (stereo not given) Test system: KM20L2 colon Read-out: TGI Value: ?
result: 80.8 µM

query: API: value(readout= TGI, system= KM20L2 colon, query= O=c1c2ccccc2nc(-c2ccccc2Cl)n1NCC1(O)OCC(O)C(O)C1O (stereo not given) )
result: > 100 µM

query: Lookup: TGI / KM20L2 colon / Nc1ccc(N)c2c1C(=O)c1ccccc1C2=O
result: > 100 µM
